The origin of these recorded values is ChEMBL document CHEMBL3045546.

# MIC listing for each entry below
# Tested on: Bacillus pumilus
# TEST: Antimicrobial activity against Bacillus pumilus ATCC 14884 assessed as growth inhibition by broth dilution method
# Type: functional

{"MOLECULE": "O=C1CSC(c2cccc(O)c2)N1CCN1CCNCC1 (stereo unspecified)", "RESULT_VALUE": "37.5 mg/L"}
{"MOLECULE": "COc1ccc(C2C(Cl)C(=O)N2CCN2CCN(C(=O)CCl)CC2)cc1O (stereo unspecified)", "RESULT_VALUE": "9.37 mg/L"}
{"MOLECULE": "O=C(CCl)N1CCN(CCN2C(=O)C(Cl)C2c2ccccc2)CC1 (stereo unspecified)", "RESULT_VALUE": "18.8 mg/L"}
{"MOLECULE": "O=C1CSC(c2ccco2)N1CCN1CCNCC1 (stereo unspecified)", "RESULT_VALUE": "150 mg/L"}
{"MOLECULE": "O=C(CCl)N1CCN(CCN2C(=O)C(Cl)C2c2ccc(O)cc2)CC1 (stereo unspecified)", "RESULT_VALUE": "9.37 mg/L"}

# input for lookup
Q: Supply recorded MIC for COc1ccc(C2C(Cl)C(=O)N2CCN2CCN(C(=O)CCl)CC2)cc1 (stereo unspecified) here.
Ans: 9.37 mg/L

----------
Quick list: log10 of MIC per entry.
# Test system: Aspergillus awamori
# TEST: Antimicrobial activity against Aspergillus awamori ATCC 22342 assessed as growth inhibition by broth dilution method
# Assay type: functional
# values: log10(MIC), units µg/mL

{"MOLECULE": "O=C(CCl)N1CCN(CCN2C(=O)C(Cl)C2c2ccc(O)cc2)CC1 (stereo unspecified)", "log10 of MIC": 0.97}
{"MOLECULE": "COc1cc(C2C(Cl)C(=O)N2CCN2CCN(C(=O)CCl)CC2)ccc1O (stereo unspecified)", "log10 of MIC": 1.27}
{"MOLECULE": "COc1ccc(C2SCC(=O)N2CCN2CCNCC2)cc1O (stereo unspecified)", "log10 of MIC": 0.97}
{"MOLECULE": "O=C(CCl)N1CCN(CCN2C(=O)C(Cl)C2c2ccccc2)CC1 (stereo unspecified)", "log10 of MIC": 1.88}
{"MOLECULE": "O=C(CCl)N1CCN(CCN2C(=O)C(Cl)C2c2cccc(O)c2)CC1 (stereo unspecified)", "log10 of MIC": 1.88}
{"MOLECULE": "O=C1CSC(c2ccco2)N1CCN1CCNCC1 (stereo unspecified)", "log10 of MIC": 2.18}
{"MOLECULE": "O=C1CSC(c2cccc(O)c2)N1CCN1CCNCC1 (stereo unspecified)", "log10 of MIC": 1.57}
{"MOLECULE": "COc1ccc(C2C(Cl)C(=O)N2CCN2CCN(C(=O)CCl)CC2)cc1 (stereo unspecified)", "log10 of MIC": 0.97}
{"MOLECULE": "Clc1ccccc1C(c1ccccc1)(c1ccccc1)n1ccnc1", "log10 of MIC": 0.67}
{"MOLECULE": "O=C1CSC(c2ccccc2)N1CCN1CCNCC1 (stereo unspecified)", "log10 of MIC": 1.88}

Now consider the entry below.
Q: Output log10 of MIC of COc1cc(C2SCC(=O)N2CCN2CCNCC2)ccc1O (stereo unspecified)
Ans: 0.99

----------
# Test system: Trichophyton longifusum
# TEST: Antimicrobial activity against Trichophyton longifusum ATCC 22397 assessed as growth inhibition by broth dilution method
# Format: functional
REPORTED_ENDPOINT: log10 MIC (log10 of the value in µg/mL)
Recorded MIC (log10, µg/mL)

Completed entries (count: 5):
{"COMPOUND": "COc1cc(C2SCC(=O)N2CCN2CCNCC2)ccc1O (stereo unspecified)", "TEST_TARGET": "Trichophyton longifusum", "RESULT_VALUE": 0.99}
{"COMPOUND": "Clc1ccccc1C(c1ccccc1)(c1ccccc1)n1ccnc1 [CLOTRIMAZOLE]", "TEST_TARGET": "Trichophyton longifusum", "RESULT_VALUE": 0.67}
{"COMPOUND": "COc1cc(C2C(Cl)C(=O)N2CCN2CCN(C(=O)CCl)CC2)ccc1O (stereo unspecified)", "TEST_TARGET": "Trichophyton longifusum", "RESULT_VALUE": 0.97}
{"COMPOUND": "COc1ccc(C2SCC(=O)N2CCN2CCNCC2)cc1 (stereo unspecified)", "TEST_TARGET": "Trichophyton longifusum", "RESULT_VALUE": 1.27}
{"COMPOUND": "COc1ccc(C2C(Cl)C(=O)N2CCN2CCN(C(=O)CCl)CC2)cc1 (stereo unspecified)", "TEST_TARGET": "Trichophyton longifusum", "RESULT_VALUE": 0.97}

Q: Identify measured log10 MIC corresponding to O=C1CSC(c2ccco2)N1CCN1CCNCC1 (stereo unspecified)
Ans: 2.48

Q: Input O=C(CCl)N1CCN(CCN2C(=O)C(Cl)C2c2ccccc2O)CC1 (stereo unspecified) , output reported log10 MIC.
Ans: 2.48

Q: Tell me log10 MIC reported for O=C1CSC(c2ccccc2)N1CCN1CCNCC1 (stereo unspecified)
Ans: 1.88

----------
# Tested on: Aspergillus awamori
# TEST: Antimicrobial activity against Aspergillus awamori ATCC 22342 assessed as growth inhibition by broth dilution method
# Type: functional
REPORTED_ENDPOINT: MIC
Give me the value, and tack the unit on after it.

The following compounds have reported results that may help.
{"COMPOUND": "O=C1CSC(c2ccc(O)cc2)N1CCN1CCNCC1 (stereo unspecified)", "MIC": "18.8 µg/mL"}
{"COMPOUND": "COc1ccc(C2C(Cl)C(=O)N2CCN2CCN(C(=O)CCl)CC2)cc1O (stereo unspecified)", "MIC": "18.8 µg/mL"}
{"COMPOUND": "O=C1CSC(c2ccccc2O)N1CCN1CCNCC1 (stereo unspecified)", "MIC": "300 µg/mL"}

Q: Quote Aspergillus awamori MIC for entry COc1ccc(C2SCC(=O)N2CCN2CCNCC2)cc1 (stereo unspecified) .
Ans: 9.73 µg/mL

Q: Provide measured MIC on Aspergillus awamori for O=C(CCl)N1CCN(CCN2C(=O)C(Cl)C2c2ccccc2O)CC1 (stereo unspecified) please.
Ans: 300 µg/mL

Q: Look up and report measured MIC (Aspergillus awamori) for the following compound: O=C(CCl)N1CCN(CCN2C(=O)C(Cl)C2c2ccco2)CC1 (stereo unspecified)
Ans: 150 µg/mL

----------
# System: Trichoderma viride
# TEST: Antimicrobial activity against Hypocrea rufa ATCC 52440 assessed as growth inhibition by broth dilution method
# Assay type: functional
A collection of compounds and their measured MIC
Dear colleague, please return just the value in µg/mL, with no unit written.

{"COMPOUND": "O=C(CCl)N1CCN(CCN2C(=O)C(Cl)C2c2cccc(O)c2)CC1 (configuration not stated)", "MIC (µg/mL)": 37.5}
{"COMPOUND": "COc1ccc(C2SCC(=O)N2CCN2CCNCC2)cc1O (configuration not stated)", "MIC (µg/mL)": 18.8}

// below: MIC requested for another compound
Q: Look up and report measured MIC for this entry: "Clc1ccccc1C(c1ccccc1)(c1ccccc1)n1ccnc1"
Ans: 2.34

----------
# MIC values compiled below
# Tested on: Salmonella typhi
# TEST: Antimicrobial activity against Salmonella enterica subsp. enterica serovar Typhi ATCC 19430 assessed as growth inhibition by broth dilution method
# Assay type: functional

Some entries whose results are on file:
{"COMPOUND": "COc1cc(C2C(Cl)C(=O)N2CCN2CCN(C(=O)CCl)CC2)ccc1O (stereo not drawn)", "MIC": "4.68 µg/mL"}
{"COMPOUND": "O=C1CSC(c2ccccc2)N1CCN1CCNCC1 (stereo not drawn)", "MIC": "18.8 µg/mL"}

# ---- query compound ----
Q: Find MIC for COc1cc(C2SCC(=O)N2CCN2CCNCC2)ccc1O (stereo not drawn) on Salmonella typhi and write it down.
Ans: 9.37 µg/mL

----------
Overview of reported MIC across a group of compounds:
# System: Trichophyton longifusum
# TEST: Antimicrobial activity against Trichophyton longifusum ATCC 22397 assessed as growth inhibition by broth dilution method
# Format: functional
Write it as a number; the unit µg/mL goes unstated.

{"COMPOUND": "COc1ccc(C2C(Cl)C(=O)N2CCN2CCN(C(=O)CCl)CC2)cc1O (stereo not drawn)", "RESULT_VALUE": 9.73}
{"COMPOUND": "O=C(CCl)N1CCN(CCN2C(=O)C(Cl)C2c2ccccc2)CC1 (stereo not drawn)", "RESULT_VALUE": 37.5}

Q: Answer with MIC of O=C(CCl)N1CCN(CCN2C(=O)C(Cl)C2c2ccc(O)cc2)CC1 (stereo not drawn) measured for Trichophyton longifusum.
Ans: 18.8

----------
# Test system: Trichoderma viride
# TEST: Antimicrobial activity against Hypocrea rufa ATCC 52440 assessed as growth inhibition by broth dilution method
# Format: functional
This section presents compounds with their documented log10 MIC values.
log10 MIC, µg/mL

{"COMPOUND": "O=C1CSC(c2ccco2)N1CCN1CCNCC1 (centres undefined)", "log10 MIC": 2.18}
{"COMPOUND": "O=C1CSC(c2cccc(O)c2)N1CCN1CCNCC1 (centres undefined)", "log10 MIC": 1.57}

Q: Please give measured log10 MIC of the following entry: COc1cc(C2C(Cl)C(=O)N2CCN2CCN(C(=O)CCl)CC2)ccc1O (centres undefined)
Ans: 1.27

Q: For O=C(CCl)N1CCN(CCN2C(=O)C(Cl)C2c2ccccc2O)CC1 (centres undefined) , write its log10 MIC.
Ans: 2.48

Q: Report log10 MIC for COc1ccc(C2SCC(=O)N2CCN2CCNCC2)cc1 (centres undefined)
Ans: 0.99

Q: Quick one: give measured log10 MIC for COc1ccc(C2C(Cl)C(=O)N2CCN2CCN(C(=O)CCl)CC2)cc1O (centres undefined)
Ans: 1.27

Q: Note log10 MIC for the compound shown: O=C1CSC(c2ccc(O)cc2)N1CCN1CCNCC1 (centres undefined)
Ans: 1.27
